Recorded values, source patent US20150337013A1.

- Tested on: Staphylococcus aureus SAU.42 (ATCC 29213)
- Type: cell-based
- measurement_setup: ATCC 29213
readout_label: Sa42 MIC (µg/mL)

compound | unit_symbol | recorded_measurement
CCCCCCCC(C)C(=O)N[C@@H](Cc1c[nH]c2ccccc12)C(=O)N[C@H](CC(N)=O)C(=O)N[C@@H](CC(=O)O)C(=O)N[C@@H]1C(=O)NCC(=O)N[C@@H](CCCN)C(=O)N[C@@H](CC(=O)O)C(=O)N[C@H](C)C(=O)N[C@@H](CC(=O)O)C(=O)NCC(=O)N[C@H](CO)C(=O)N[C@@H]([C@H](C)CC(=O)O)C(=O)N[C@@H](CC(=O)c2ccccc2N)C(=O)O[C@@H]1C (stereo partly drawn) | µg/mL | 2
CCCCc1ccc(CC(=O)N[C@@H](Cc2c[nH]c3ccccc23)C(=O)N[C@H](CC(N)=O)C(=O)N[C@@H](CC(=O)O)C(=O)N[C@@H]2C(=O)NCC(=O)N[C@@H](CCCN)C(=O)N[C@@H](CC(=O)O)C(=O)N[C@H](C)C(=O)N[C@@H](CC(=O)O)C(=O)NCC(=O)N[C@H](CO)C(=O)N[C@@H]([C@H](C)CC(=O)O)C(=O)N[C@@H](CC(=O)c3ccccc3N)C(=O)O[C@@H]2C)cc1 | µg/mL | 4
CCCCCCCCCCCCCCC(=O)N[C@@H](Cc1c[nH]c2ccccc12)C(=O)N[C@H](CC(N)=O)C(=O)N[C@@H](CC(=O)O)C(=O)N[C@@H]1C(=O)NCC(=O)N[C@@H](CCCN)C(=O)N[C@@H](CC(=O)O)C(=O)N[C@H](C)C(=O)N[C@@H](CC(=O)O)C(=O)NCC(=O)N[C@H](CO)C(=O)N[C@@H]([C@H](C)CC(=O)O)C(=O)N[C@@H](CC(=O)c2ccccc2N)C(=O)O[C@@H]1C | µg/mL | 1
